Ref: patent US12281102B2

In this section we review reported IC50 values for a set of compounds.
measurement.target: T1, G1 APOL1 (Homo sapiens, UniProt O14791, I384M/S342G)
T1 construct: expressed in transfected cells
assay.name: Acute APOL1 Thallium Assay with inducible stable clones of HEK 293 cells
Assay type: cell-based
test.settings: HEK 293 T-Rex inducible stable clone expressing G1 APOL1; read-out: Thallium Assay (IC50)
Text: Acute APOL1 Thallium Assay with Inducible Stable Clones of HEK 293 Cells Apolipoprotein L1 (APOL1) proteins form potassium-permeable cation pores in the plasma membrane. APOL1 risk variants (G1 and G2) induce greater potassium flux than G0 in HEK293 cells. […] The increase of fluorescence in the assay represents the influx of T1+ into the cell specifically through the potassium channel (i.e. through APOL1 pores), providing a functional measurement of potassium channel/pore activity. […]

[[record]]
compound = "O=C(Cc1ncccn1)NC[C@H]1C[C@H](c2c(-c3ccc(F)cc3)[nH]c3c(F)cc(F)cc32)C1 [Compound 248]"
measurement_target = "T1, G1 APOL1 (Homo sapiens, UniProt O14791, I384M/S342G)"
obs_value = "> 1000 nM"


# lookup: IC50 of O=C(NC[C@H]1C[C@@H](c2c(-c3ccc(F)cc3)[nH]c3c(F)cc(F)cc32)C1)C(F)F [Compound 219]
250 to 1000 nM

# lookup: IC50 of NS(=O)(=O)CCC(=O)N[C@H]1C[C@H](c2c(-c3ccc(F)cc3)[nH]c3c(F)cc(F)cc32)C1 [Compound 116]
250 to 1000 nM

# lookup: IC50 of O=C(NC[C@H]1C[C@H](c2c(-c3ccc(F)cc3)[nH]c3c(F)cc(F)cc32)C1)C(F)F [Compound 200]
< 250 nM

###

measurement.target: G1 APOL1 (Homo sapiens, UniProt O14791, I384M/S342G)
Construct: expressed in transfected cells
assay.name: Acute APOL1 Thallium Assay with inducible stable clones of HEK 293 cells
Assay type: cell-based
test.settings: HEK 293 T-Rex inducible stable clone expressing G1 APOL1; read-out: Thallium Assay (IC50)
property: IC50

[[record]]
molecule = "CC(C)(CO)NCC1CC(c2c(-c3ccc(F)cc3)[nH]c3c(F)cc(F)cc23)C1 (stereo not drawn)"
obs_value = "> 1000 nM"

[[record]]
molecule = "CC[C@@H](NC(=O)OC(C)(C)C)C(=O)NC[C@H]1C[C@H](c2c(-c3ccc(F)cc3)[nH]c3c(F)cc(F)cc32)C1"
obs_value = "> 1000 nM"


Now for a further molecule.
# lookup: IC50 of `CO[C@H](C)C(=O)NC[C@H]1C[C@H](c2c(-c3ccc(F)cc3)[nH]c3c(F)cc(F)cc32)C1`
> 1000 nM

###

measurement.target: G1 APOL1 (Homo sapiens, UniProt O14791, I384M/S342G)
Construct: expressed in transfected cells
assay.name: Acute APOL1 Thallium Assay with inducible stable clones of HEK 293 cells
Type: cell-based
test.settings: HEK 293 T-Rex inducible stable clone expressing G1 APOL1; read-out: Thallium Assay (IC50)
pIC50: −log10 of the molar value.
property: pIC50

Please review the following examples before continuing.
[[record]]
compound = "C[C@@H](CO)NCC1CC(c2c(-c3ccc(F)cc3)[nH]c3c(F)cc(F)cc23)C1 (stereo partly shown)"
property = "pIC50"
obs_value = "< 6.00"

[[record]]
compound = "O=C1NCCC1C(=O)NC1CC(Cc2c(-c3ccc(F)cc3)[nH]c3c(F)cc(F)cc23)C1 (stereo not shown)"
property = "pIC50"
obs_value = "< 6.00"

[[record]]
compound = "Cc1cc(-c2[nH]c3c(F)cc(F)cc3c2C2CC(N)C2)ccc1F (mixture of isomers)"
property = "pIC50"
obs_value = "6.00 to 6.60"

[[record]]
compound = "NC1(C(=O)NC[C@H]2C[C@H](c3c(-c4ccc(F)cc4)[nH]c4c(F)cc(F)cc43)C2)CCC1"
property = "pIC50"
obs_value = "< 6.00"

[[record]]
compound = "Cn1cnc(CNS(=O)(=O)NC[C@H]2C[C@H](c3c(-c4ccc(F)cc4)[nH]c4c(F)cc(F)cc43)C2)c1"
property = "pIC50"
obs_value = "< 6.00"


# lookup: pIC50 of OCC(CO)NCC1CC(c2c(-c3ccc(F)cc3)[nH]c3c(F)cc(F)cc23)C1 (stereo not shown)
6.00 to 6.60

# lookup: pIC50 of O=C1CCC(C(=O)N[C@H]2C[C@H](c3c(-c4ccc(F)cc4)[nH]c4c(F)cc(F)cc43)C2)CN1 (stereo partly shown)
< 6.00

###

In this section we review reported pIC50 values for a set of molecules.
measurement.target: G1 APOL1 (Homo sapiens, UniProt O14791, I384M/S342G)
Construct: expressed in transfected cells
assay.name: Acute APOL1 Thallium Assay with inducible stable clones of HEK 293 cells
Type: cell-based
test.settings: HEK 293 T-Rex inducible stable clone expressing G1 APOL1; read-out: Thallium Assay (IC50)
pIC50: −log10 of the molar value.

# lookup: pIC50 of `O=C(Cn1cnnc1)N[C@H]1C[C@H](c2c(-c3ccc(F)cc3)[nH]c3c(F)cc(F)cc32)C1`
< 6.00

# lookup: pIC50 of `O=S(=O)(N[C@H]1C[C@H](c2c(-c3ccc(F)cc3)[nH]c3c(F)cc(F)cc32)C1)c1c[nH]cn1`
6.00 to 6.60

# lookup: pIC50 of O=C(NC1CC(c2c(-c3ccc(F)cc3)[nH]c3c(F)cc(F)cc23)C1)OCc1ccccc1 (stereo not shown)
< 6.00

# lookup: pIC50 of O=C(N[C@H]1C[C@H](c2c(-c3ccc(F)cc3)[nH]c3c(F)cc(F)cc32)C1)C(O)C1CC1 (stereo partly shown)
6.00 to 6.60

# lookup: pIC50 of `C[C@@H](O)CNS(=O)(=O)NC[C@H]1C[C@H](c2c(-c3ccc(F)cc3)[nH]c3c(F)cc(F)cc32)C1`
< 6.00

# lookup: pIC50 of `O=C(NC[C@H]1C[C@H](c2c(-c3ccc(F)cc3)[nH]c3c(F)cc(F)cc32)C1)C1COC1`
> 6.60

# lookup: pIC50 of NC1CC(c2c(-c3ccc(F)cc3)[nH]c3c(F)cc(C(F)(F)F)cc23)C1 (mixture of isomers)
< 6.00

###

In this section we review reported IC50 values for a set of compounds.
measurement.target: G1 APOL1 (Homo sapiens, UniProt O14791, I384M/S342G)
Construct: expressed in transfected cells
assay.name: Acute APOL1 Thallium Assay with inducible stable clones of HEK 293 cells
Type: cell-based
test.settings: HEK 293 T-Rex inducible stable clone expressing G1 APOL1; read-out: Thallium Assay (IC50)

Please review the following examples before continuing.
[[record]]
compound = "O=C1NCC(C(=O)NC[C@H]2C[C@H](c3c(-c4ccc(F)cc4)[nH]c4c(F)cc(F)cc43)C2)O1 (stereo partly shown)"
obs_value = "> 1000 nM"

[[record]]
compound = "NC1CC(c2c(-c3ccc(OC(F)F)cc3)[nH]c3c(F)cc(F)cc23)C1 (stereo not shown)"
obs_value = "< 250 nM"

[[record]]
compound = "C[C@H](O)C(=O)NC[C@H]1C[C@@H](c2c(-c3ccc(F)cc3)[nH]c3c(F)cc(F)cc32)C1"
obs_value = "250 to 1000 nM"

[[record]]
compound = "O=C1NCC[C@H]1NS(=O)(=O)NC[C@H]1C[C@H](c2c(-c3ccc(F)cc3)[nH]c3c(F)cc(F)cc32)C1"
obs_value = "> 1000 nM"

[[record]]
compound = "CS(=O)(=O)CCCC(=O)NC[C@H]1C[C@@H](c2c(-c3ccc(F)cc3)[nH]c3c(F)cc(F)cc32)C1"
obs_value = "> 1000 nM"


Which IC50 is reported with G1 APOL1 (Homo sapiens, UniProt O14791, I384M/S342G) for this entry: `O=C(NC[C@H]1C[C@H](c2c(-c3ccc(F)cc3)[nH]c3c(F)cc(F)cc32)C1)c1ccc[nH]1` ?
> 1000 nM

Which IC50 is reported with G1 APOL1 (Homo sapiens, UniProt O14791, I384M/S342G) for this entry: `NC(=O)CNS(=O)(=O)NC[C@H]1C[C@H](c2c(-c3ccc(F)cc3)[nH]c3c(F)cc(F)cc32)C1` ?
250 to 1000 nM

###

measurement.target: G1 APOL1 (Homo sapiens, UniProt O14791, I384M/S342G)
Construct: expressed in transfected cells
Sequence (O14791 28-398 S342G/I384M): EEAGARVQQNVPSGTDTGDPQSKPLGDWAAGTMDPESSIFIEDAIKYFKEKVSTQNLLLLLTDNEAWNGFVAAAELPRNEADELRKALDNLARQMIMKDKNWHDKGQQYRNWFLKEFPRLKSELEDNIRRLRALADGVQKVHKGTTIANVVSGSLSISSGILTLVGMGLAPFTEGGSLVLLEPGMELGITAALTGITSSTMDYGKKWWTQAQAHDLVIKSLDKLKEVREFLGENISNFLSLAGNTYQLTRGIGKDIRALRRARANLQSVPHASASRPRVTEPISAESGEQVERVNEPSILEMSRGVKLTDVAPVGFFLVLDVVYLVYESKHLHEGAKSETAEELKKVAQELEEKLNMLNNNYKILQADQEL
assay.name: Acute APOL1 Thallium Assay with inducible stable clones of HEK 293 cells
Assay type: cell-based
test.settings: Thallium Assay (IC50), HEK 293 T-Rex inducible stable clone expressing G1 APOL1
pIC50: −log10 of the molar value.
property: pIC50

[[record]]
compound = "CC(C)(C)OC(=O)N1CCC[C@H]1C(=O)NC[C@H]1C[C@H](c2c(-c3ccc(F)cc3)[nH]c3c(F)cc(F)cc32)C1 [Compound 217]"
obs_value = "6.00 to 6.60"

[[record]]
compound = "CC(C)(C)OC(=O)N1CCC[C@@H]1C(=O)NC[C@H]1C[C@H](c2c(-c3ccc(F)cc3)[nH]c3c(F)cc(F)cc32)C1 [Compound 279]"
obs_value = "< 6.00"

[[record]]
compound = "CC(C)(C)OC(=O)N1CC[C@@H]1C(=O)NC[C@H]1C[C@H](c2c(-c3ccc(F)cc3)[nH]c3c(F)cc(F)cc32)C1 [Compound 310]"
obs_value = "< 6.00"

[[record]]
compound = "NCC(=O)N[C@H]1C[C@H](c2c(-c3ccc(F)cc3)[nH]c3c(F)cc(F)cc32)C1 [Compound 137]"
obs_value = "> 6.60"

[[record]]
compound = "CC(C)(C)OC(=O)N1CC[C@H]1C(=O)NC[C@H]1C[C@H](c2c(-c3ccc(F)cc3)[nH]c3c(F)cc(F)cc32)C1 [Compound 216]"
obs_value = "6.00 to 6.60"


Which pIC50 is reported with G1 APOL1 (Homo sapiens, UniProt O14791, I384M/S342G) for this entry: N[C@H]1C[C@@H](c2c(-c3ccc(F)cc3)[nH]c3c(F)cc(F)cc32)C1 [Compound 28] ?
> 6.60

Which pIC50 is reported with G1 APOL1 (Homo sapiens, UniProt O14791, I384M/S342G) for this entry: N[C@H]1C[C@H](c2c(-c3ccc(F)cc3)[nH]c3c(F)cc(F)cc32)C1 [Compound 89] ?
> 6.60

Which pIC50 is reported with G1 APOL1 (Homo sapiens, UniProt O14791, I384M/S342G) for this entry: NC1CC(c2c(-c3ccc(F)cc3)[nH]c3c(F)cc(F)cc23)C1 (centres unmarked) [Compound 14] ?
> 6.60
